PROTOCOL TEXT: qHTS assay to identify small molecule antagonists of the peroxisome proliferator-activated receptor gamma (PPARg) signaling pathway - cell viability counter screen (AID 743194); also: nearly all actives have a fitted effect of over 55% in size
CONDITIONS: PPARg-bla HEK293H viability, CellTiter-Glo luminescence, 17 h, co-treated with 50 nM rosiglitazone; series mostly up to 62.6 µM
Inconclusive results are not listed. Active and inactive are the calls of the source. Calls follow the shape of the dose curve; as a rule, active = well fitted cell-killing curve with a large enough effect in the repeat runs; inconclusive = weak or mixed curves, or effect the other way; inactive = no such curve, though single readings can be large or run the other way.
Possible outcomes: 1 = active, -1 = inactive

[
  {
    "COMPOUND": "NC(=S)NC(N)=S",
    "ASSIGNED CLASS": -1
  },
  {
    "COMPOUND": "O=C(O)[C@H](O)[C@@H](O)[C@H](O[C@@H]1O[C@H](CO)[C@H](O)[C@H](O)[C@H]1O)[C@H](O)CO",
    "ASSIGNED CLASS": -1
  },
  {
    "COMPOUND": "CCCCCCCCCCC[C@@H](C[C@@H]1OC(=O)[C@H]1CCCCCC)OC(=O)[C@H](CC(C)C)NC=O",
    "ASSIGNED CLASS": -1
  },
  {
    "COMPOUND": "C=C(CC)C(=O)c1ccc(OCC(=O)O)c(Cl)c1Cl",
    "ASSIGNED CLASS": -1
  },
  {
    "COMPOUND": "CC(C)(c1cc(Br)c(OCC(Br)CBr)c(Br)c1)c1cc(Br)c(OCC(Br)CBr)c(Br)c1 (stereo not drawn)",
    "ASSIGNED CLASS": -1
  },
  {
    "COMPOUND": "OCC(F)(F)F",
    "ASSIGNED CLASS": -1
  },
  {
    "COMPOUND": "Cc1nc2n(c(=O)c1CCN1CCC(c3noc4cc(F)ccc34)CC1)CCCC2",
    "ASSIGNED CLASS": -1
  },
  {
    "COMPOUND": "CCc1oc2ccccc2c1C(=O)c1cc(I)c(O)c(I)c1",
    "ASSIGNED CLASS": 1
  },
  {
    "COMPOUND": "CCN(CC)c1ccc2c(-c3ccc(S(=O)(=O)O)cc3S(=O)(=O)[O-])c3ccc(=[N+](CC)CC)cc-3oc2c1",
    "ASSIGNED CLASS": -1
  },
  {
    "COMPOUND": "CN1CCN(Cc2cc(-c3ccc4[nH]c(=O)oc4c3)co2)[C@@H](c2ccc(F)cc2)C1",
    "ASSIGNED CLASS": -1
  },
  {
    "COMPOUND": "CCO[Si](OCC)(OCC)OCC",
    "ASSIGNED CLASS": -1
  },
  {
    "COMPOUND": "O=C1C(c2[nH]c3ccc(S(=O)(=O)O)cc3c2O)=Nc2ccc(S(=O)(=O)O)cc21",
    "ASSIGNED CLASS": -1
  },
  {
    "COMPOUND": "O=c1c(O)c(-c2ccc(O)cc2O)oc2cc(O)cc(O)c12",
    "ASSIGNED CLASS": -1
  },
  {
    "COMPOUND": "Cc1cc(C(C#N)c2ccc(Cl)cc2)c(Cl)cc1NC(=O)c1cc(I)cc(I)c1O (stereo not drawn)",
    "ASSIGNED CLASS": 1
  },
  {
    "COMPOUND": "CCN1C(=O)c2ccccc2C1Nc1ccc(OCCN2CCCCC2)cc1 (stereo not drawn)",
    "ASSIGNED CLASS": -1
  },
  {
    "COMPOUND": "Cc1ccc(C(C)C)cc2c(C)ccc1-2",
    "ASSIGNED CLASS": -1
  },
  {
    "COMPOUND": "CN(C)Cc1ccccc1O",
    "ASSIGNED CLASS": -1
  },
  {
    "COMPOUND": "S=c1nccc[nH]1",
    "ASSIGNED CLASS": -1
  },
  {
    "COMPOUND": "CC(=O)OCC=C(C)C",
    "ASSIGNED CLASS": -1
  },
  {
    "COMPOUND": "O=C(/C=C/c1ccccc1)OC/C=C/c1ccccc1",
    "ASSIGNED CLASS": -1
  },
  {
    "COMPOUND": "CCCNCCC",
    "ASSIGNED CLASS": -1
  },
  {
    "COMPOUND": "Nc1nc(N)nc(-c2cc(Cl)ccc2Cl)n1",
    "ASSIGNED CLASS": -1
  },
  {
    "COMPOUND": "C=C(C)C(=O)OCCCCCCCCCC",
    "ASSIGNED CLASS": -1
  },
  {
    "COMPOUND": "C=CCCC(=O)/C=C/C1C(C)=CCCC1(C)C (stereo not drawn)",
    "ASSIGNED CLASS": -1
  },
  {
    "COMPOUND": "CCCCCCCCCCCC(=O)OCC(C)OC(=O)CCCCC(=O)O (stereo not drawn)",
    "ASSIGNED CLASS": -1
  },
  {
    "COMPOUND": "CC/C=C\\CCCCCO",
    "ASSIGNED CLASS": -1
  },
  {
    "COMPOUND": "C#C[C@]1(OC(C)=O)CC[C@H]2[C@@H]3CCC4=C[C@@H](OC(C)=O)CC[C@@H]4[C@H]3CC[C@@]21C",
    "ASSIGNED CLASS": -1
  },
  {
    "COMPOUND": "CC(C)OC(=O)C(O)(CC(=O)O)CC(=O)O",
    "ASSIGNED CLASS": -1
  },
  {
    "COMPOUND": "COc1ccc(NC(=O)CC(C)=O)cc1",
    "ASSIGNED CLASS": -1
  },
  {
    "COMPOUND": "CCC(C)(CCC(C)C)C(=O)[O][Sn]([CH3])([CH3])[O]C(=O)C(C)(CC)CCC(C)C (stereo not drawn)",
    "ASSIGNED CLASS": -1
  },
  {
    "COMPOUND": "Cc1cc(-n2nc3ccc(Cl)cc3n2)c(O)c(C(C)(C)C)c1",
    "ASSIGNED CLASS": -1
  },
  {
    "COMPOUND": "O=C1CCc2cc(OCCCCc3nnnn3C3CCCCC3)ccc2N1",
    "ASSIGNED CLASS": -1
  },
  {
    "COMPOUND": "CC(C)(C)NSc1nc2ccccc2s1",
    "ASSIGNED CLASS": -1
  },
  {
    "COMPOUND": "Nc1ccc(C(=O)O)c(O)c1",
    "ASSIGNED CLASS": -1
  },
  {
    "COMPOUND": "O=C1CCc2ccc(OCCCCN3CCN(c4cccc(Cl)c4Cl)CC3)cc2N1",
    "ASSIGNED CLASS": 1
  },
  {
    "COMPOUND": "Cc1c(N)cccc1C(F)(F)F",
    "ASSIGNED CLASS": -1
  },
  {
    "COMPOUND": "COC1=C(OC)C(=O)C(CCCCCCCCCCO)=C(C)C1=O",
    "ASSIGNED CLASS": -1
  },
  {
    "COMPOUND": "Cc1c(C)c2c(c(C)c1OC(=O)c1cccnc1)CC[C@@](C)(CCC[C@H](C)CCC[C@H](C)CCCC(C)C)O2",
    "ASSIGNED CLASS": -1
  },
  {
    "COMPOUND": "Clc1sc(Cl)c(Cl)c1Cl",
    "ASSIGNED CLASS": -1
  },
  {
    "COMPOUND": "CCO[C@@H]1O[C@H](C(COCc2ccccc2)OCc2ccccc2)[C@H](OCc2ccccc2)[C@H]1O (stereo partly drawn)",
    "ASSIGNED CLASS": -1
  },
  {
    "COMPOUND": "CCCCCC/C=C\\CCCCCCCC(=O)O",
    "ASSIGNED CLASS": -1
  },
  {
    "COMPOUND": "CCc1cccc(CC)c1NC(=O)CN(CC(=O)O)CC(=O)O",
    "ASSIGNED CLASS": -1
  },
  {
    "COMPOUND": "O=[N+]([O-])c1ccc(F)c(Cl)c1",
    "ASSIGNED CLASS": -1
  },
  {
    "COMPOUND": "Cc1ccc(-c2ccccc2)cc1",
    "ASSIGNED CLASS": -1
  },
  {
    "COMPOUND": "CC(CCc1ccccc1)NCC(O)c1ccc(O)c(C(N)=O)c1 (stereo not drawn)",
    "ASSIGNED CLASS": -1
  },
  {
    "COMPOUND": "Cc1cc(=O)oc2cc(O)cc(O)c12",
    "ASSIGNED CLASS": -1
  },
  {
    "COMPOUND": "COc1cc2nc(N3CCN(C(=O)c4ccco4)CC3)nc(N)c2cc1OC",
    "ASSIGNED CLASS": -1
  },
  {
    "COMPOUND": "O=S(=O)(O)c1ccccc1/C=C/c1ccc(-c2ccc(/C=C/c3ccccc3S(=O)(=O)O)cc2)cc1",
    "ASSIGNED CLASS": -1
  }
]
